Provenance of the data: ChEMBL document CHEMBL1201861

# Tested on: DU-4475
# measurement.protocol: cells
# Assay type: functional, cell-based
# conditions.used: Homo sapiens
# Description: SANGER: Inhibition of human DU-4475 cell growth in a cell viability assay.
Reported IC50 values follow for various molecules

| molecule | IC50 |
| --- | --- |
| O=C1N=C(NCc2cccs2)S/C1=C\c1ccc2ncccc2c1 | > 5000 nM |
| C=CCc1cccc(/C=N/NC(=O)CN2CCN(Cc3ccccc3)CC2)c1O [PAC-1] | 1910 nM |
| CCC(=O)N1CCN(c2ccc(-n3c(=O)ccc4cnc5ccc(-c6cnc7ccccc7c6)cc5c43)cc2C(F)(F)F)CC1 [TORIN1] | 91.7 nM |
| CO[C@H]1C[C@@H]2CC[C@@H](C)[C@@](O)(O2)C(=O)C(=O)N2CCCC[C@H]2C(=O)O[C@H]([C@H](C)C[C@@H]2CC[C@@H](O)[C@H](OC)C2)CC(=O)[C@H](C)/C=C(\C)[C@@H](O)[C@@H](OC)C(=O)[C@H](C)C[C@H](C)/C=C/C=C/C=C/1C [SIROLIMUS] | > 100 nM |
| CN1CCN(CCOc2cc(OC3CCOCC3)c3c(Nc4c(Cl)ccc5c4OCO5)ncnc3c2)CC1 [SARACATINIB] | > 2000 nM |
| Cc1cnc(-c2cnc(NCCNc3ccc(C#N)cn3)nc2-c2ccc(Cl)cc2Cl)[nH]1 [LADUVIGLUSIB] | > 2560 nM |
| O=C(c1cc(Cc2n[nH]c(=O)c3ccccc23)ccc1F)N1CCN(C(=O)C2CC2)CC1 [OLAPARIB] | > 5000 nM |

----------
Reported pIC50 values follow for various compounds
# System: DG-75;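 also: growth inhibition of DG-75 cells, read out with a cell viability assay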
# measurement.protocol: cells
# Assay type: functional, cell-based
# conditions.used: Homo sapiens
# Description: SANGER: Inhibition of human DG-75 cell growth in a cell viability assay.
pIC50: −log10 of the molar value.

| query.smiles | pIC50 |
| --- | --- |
| CCC1=C[C@@H]2CN(C1)Cc1c([nH]c3ccccc13)[C@@](C(=O)OC)(c1cc3c(cc1OC)N(C)[C@H]1[C@@](O)(C(=O)OC)[C@H](OC(C)=O)[C@]4(CC)C=CCN5CC[C@]31[C@@H]54)C2 | < 7.19 |
| Cc1cnc(-c2cnc(NCCNc3ccc(C#N)cn3)nc2-c2ccc(Cl)cc2Cl)[nH]1 | < 5.59 |
| CCc1nc(N)nc(N)c1-c1ccc(Cl)cc1 | 4.84 |

----------
# Tested on: LB2518-MEL;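 also: growth inhibition of human LB2518-MEL cells, measured with a cell viability assay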
# measurement.protocol: cells
# Type: functional, cell-based, Homo sapiens
# conditions.used: Homo sapiens, LB2518-MEL
# Description: SANGER: Inhibition of human LB2518-MEL cell growth in a cell viability assay.
Reported IC50 values follow for various compounds

| compound | IC50 |
| --- | --- |
| CN(c1ncccc1CNc1nc(Nc2ccc3c(c2)CC(=O)N3)ncc1C(F)(F)F)S(C)(=O)=O | > 2.56 µM |
| O=C(/C=C/c1ccccc1)NC(NC(=S)Nc1cccc2cccnc12)C(Cl)(Cl)Cl (stereo not drawn) | 7.97 µM |
| CC(=O)O[C@@H]1[C@@H](OC(C)=O)[C@@H](O)[C@H](Oc2c(-c3ccc(O)cc3)oc3cc(O)cc(O)c3c2=O)O[C@H]1C | > 10 µM |
| C=CCNC1=C2C[C@@H](C)C[C@H](OC)[C@H](O)[C@@H](C)/C=C(\C)[C@H](OC(N)=O)[C@@H](OC)/C=C\C=C(/C)C(=O)NC(=CC1=O)C2=O | 0.258 µM |
| O=C(c1cc(Cc2n[nH]c(=O)c3ccccc23)ccc1F)N1CCN(C(=O)C2CC2)CC1 | > 5 µM |
| COc1ccc(-c2ccc3c(N4CCOC[C@@H]4C)nc(N4CCOC[C@@H]4C)nc3n2)cc1CO | > 2 µM |
| Cc1cnc(-c2cnc(NCCNc3ccc(C#N)cn3)nc2-c2ccc(Cl)cc2Cl)[nH]1 | > 2.56 µM |
| CCOc1nc(NC(=O)Cc2cc(OC)ccc2OC)cc(N)c1C#N | > 10 µM |
